Data provenance: PubChem BioAssay (NCI)

System: M14 melanoma
Test: NCI tumour cell line growth inhibition, 48 h
Let's look at some compounds and their measured TGI.
Dear colleague, please return just the value in µM, with no unit written.

{"compound": "C=C1CC[C@@H]2[C@](C)(COC(C)=O)[C@H](OC(C)=O)CC[C@@]2(C)[C@@H]1CC(Nc1ccc(S(=O)(=O)Nc2nccc(C)n2)cc1)C1=CCOC1=O (stereo partly drawn)", "numeric-value": 10.8}

-- ask What does the data say about its TGI? Entry: CCC1C(c2cc(OC)c(OC)c(OC)c2)c2cc3c(cc2OC1N1CCOCC1)OCO3 (stereo not drawn)
-- reply 23.7

* * *

System: T-47D breast
Assay: NCI tumour cell line growth inhibition, 48 h
Let's look at some compounds and their measured GI50.

{"smiles-entry": "Clc1nc(Cl)c2ncn(Cc3ccc(COc4cccc(OCc5ccc(Cn6cnc7c(Cl)nc(Cl)nc76)cc5)c4)cc3)c2n1", "GI50": "21.5 µM"}
{"smiles-entry": "CC(=O)Nc1ccc2c(c1)oc(=O)c1cc(NC(C)=O)ccc12", "GI50": "59.6 µM"}
{"smiles-entry": "O=C1/C(=C/c2ccc(O)cc2)COc2ccc(-c3ccccc3)cc21", "GI50": "3.76 µM"}

-- ask What does the data say about its GI50? Entry: "CO/N=C(\C)c1ccc(Nc2cc(-c3ccccc3)nc3c(O)cccc23)cc1"
-- reply 9.07 µM

-- ask What does the data say about its GI50? Entry: "Fc1ccc2[nH]c3c(NCCCN4CCOCC4)ncnc3c2c1"
-- reply 35.7 µM
